# % inhibition listing for each entry below
target: T1, recombinant human EGFR extracellular domain with 6xHis (human, UniProt P00533 25-645); test: SPR competition, competitor 1208
T1 construct: In-house produced; also called 6xHis EGFR ECD; soluble human EGFR ECD; not shown: 6xHis tag
Lab book: enter the figure in %, no units written.

binder	% inhibition (%)
antibody 1347 (antibody, human IgG1, kappa, V domains shown, Chimeric IgG1 kappa) VH: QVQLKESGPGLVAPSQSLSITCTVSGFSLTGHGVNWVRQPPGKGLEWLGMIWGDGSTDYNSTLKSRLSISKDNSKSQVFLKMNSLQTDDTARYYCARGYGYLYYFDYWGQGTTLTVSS VL: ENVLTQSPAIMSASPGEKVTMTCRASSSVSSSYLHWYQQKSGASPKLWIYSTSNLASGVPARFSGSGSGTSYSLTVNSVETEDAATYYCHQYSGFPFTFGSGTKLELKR	0
antibody 1254 (antibody, human IgG1, kappa, V domains shown, Chimeric IgG1 kappa; also called mAb 1254) VH: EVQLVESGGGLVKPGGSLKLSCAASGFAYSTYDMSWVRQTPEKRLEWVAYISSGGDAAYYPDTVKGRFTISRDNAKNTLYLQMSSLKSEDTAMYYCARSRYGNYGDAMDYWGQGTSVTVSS VL: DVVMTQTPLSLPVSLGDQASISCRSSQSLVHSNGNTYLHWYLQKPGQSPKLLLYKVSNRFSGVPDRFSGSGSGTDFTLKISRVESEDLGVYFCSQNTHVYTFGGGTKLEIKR	108
antibody 992 (antibody, human IgG1, kappa, V domains shown, Chimeric mouse/human IgG1 kappa; the VL entry includes the human kappa constant region) VH: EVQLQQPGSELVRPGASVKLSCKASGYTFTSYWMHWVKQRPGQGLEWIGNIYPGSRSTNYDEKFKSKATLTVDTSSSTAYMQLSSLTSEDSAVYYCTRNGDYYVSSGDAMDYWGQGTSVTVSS VL: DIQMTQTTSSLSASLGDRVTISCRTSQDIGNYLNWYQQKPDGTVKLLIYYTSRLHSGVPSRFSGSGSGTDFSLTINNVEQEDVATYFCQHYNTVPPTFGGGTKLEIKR	109
antibody 1320 (antibody, human IgG1, kappa, V domains shown, Chimeric IgG1 kappa) VH: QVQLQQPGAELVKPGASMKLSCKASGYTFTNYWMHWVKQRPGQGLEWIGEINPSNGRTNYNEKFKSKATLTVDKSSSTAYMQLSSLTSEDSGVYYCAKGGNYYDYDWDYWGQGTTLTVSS VL: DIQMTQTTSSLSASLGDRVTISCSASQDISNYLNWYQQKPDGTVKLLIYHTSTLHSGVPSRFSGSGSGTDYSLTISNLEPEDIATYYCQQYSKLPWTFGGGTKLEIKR	-3

Exam item: So what's the measured % inhibition for this one? antibody 1208 (antibody, human IgG1, kappa, V domains shown, Chimeric IgG1 kappa; also called clone 1208) VH: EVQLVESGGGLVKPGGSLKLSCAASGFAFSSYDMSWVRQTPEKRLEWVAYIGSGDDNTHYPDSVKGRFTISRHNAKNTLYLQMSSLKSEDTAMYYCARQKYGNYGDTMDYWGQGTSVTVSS VL: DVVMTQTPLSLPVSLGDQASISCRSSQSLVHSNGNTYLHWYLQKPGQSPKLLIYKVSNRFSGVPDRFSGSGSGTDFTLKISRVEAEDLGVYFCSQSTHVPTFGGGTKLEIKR
Marked response: 78
